B1: Osa-1-4 twister ribozyme (parent)
chain: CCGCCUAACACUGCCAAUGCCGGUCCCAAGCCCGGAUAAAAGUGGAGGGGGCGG

Variants of: B1
Test: self-cleavage, relative activity (ratio to wild type); higher = more cleavage; co-transcriptional
Use yes when the recorded self-cleavage is no lower than 0.2; use no when it is lower.

## Input Does A17G C52A have a reported self-cleavage of at least 0.2?
## Output yes

## Input Please do the same for A29C A41C as well.
## Output no

## Input Please do the same for A36C G22A as well.
## Output yes

## Input Please do the same for G42C G47C as well.
## Output no

## Input Please do the same for A8G G35C as well.
## Output no

## Input Please do the same for A29C U24C as well.
## Output no

## Input Please do the same for C21U G47U as well.
## Output yes

## Input Please do the same for A38G A46C as well.
## Output no

## Input Please do the same for C11A G53C as well.
## Output no

## Input Please do the same for C15U G22A as well.
## Output no

// data source = the RNAGym collection of RNA variant scans (doi:10.1002/anie.201605470)
